Catalogue of t½ Ratio pH7.4/pH6.0 values
# MEASURED TARGET: T1, human C5 (human, UniProt P01031 19-1676)
# T1 construct: native C5 purified from plasma (EMD) in the Biacore and Octet assays, C5 of normal human serum in the CDC and hemolysis assays; two chains (alpha and beta); also called hC5; complement factor 5
# ASSAY TEXT: SPR (Biacore), mAb captured, dissociation of human C5 at pH7.4 vs pH6.0, 37°C
Keep it simple and answer with nothing but the number.

Recorded results for 2 binders are shown here.
{"columns": ["BINDER", "t½ Ratio pH7.4/pH6.0"],
 "data": [
  ["H4H12166P2 (antibody, human IgG4, V domains shown, histidine-mutated CDR variant of H4H12166P; human IgG4 (S108P)) VH: QVQLQESGPGLVKPSETLSLTCTVSGDSVSSSYWTWIRQPPGKGLEWIGYIYYSGSSNYNPSLKSRATISVDTSKNQFSLKLSSVTAADTAVYYCAREGNVDTTMIFDYWGQGTLVTVSS VL: AIQMTQSPSSLSASVGDRVTITCRASQGIRNDLGWYQQKPGKAPKLLIYAASSLQSGVPSRFAGRGSGTDFTLTISSLQPEDFATYYCHQDFNYPWTFGQGTKVEIK", 7.3],
  ["H4H12163P (antibody, human IgG4, V domains shown, H4H: human IgG4 Fc with S108P hinge mutation) VH: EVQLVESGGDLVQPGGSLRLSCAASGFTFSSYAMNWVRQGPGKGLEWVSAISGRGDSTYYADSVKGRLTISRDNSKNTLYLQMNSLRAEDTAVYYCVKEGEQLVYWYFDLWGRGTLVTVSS VL: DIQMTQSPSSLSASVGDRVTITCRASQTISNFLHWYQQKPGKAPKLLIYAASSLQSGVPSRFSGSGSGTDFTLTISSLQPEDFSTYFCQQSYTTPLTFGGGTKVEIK", 0.8]
]}

Shift focus to the following entry.
Reported t½ Ratio pH7.4/pH6.0 ( H4H11683N (antibody, human IgG4, V domains shown, tested with H4H prefix (human IgG4 Fc with S108P hinge mutation); variable regions follow the numerical identifier; also called H2M11683N) VH: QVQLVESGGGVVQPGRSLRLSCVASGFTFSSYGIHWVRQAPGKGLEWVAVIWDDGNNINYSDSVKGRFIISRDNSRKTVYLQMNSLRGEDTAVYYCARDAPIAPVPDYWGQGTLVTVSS VL: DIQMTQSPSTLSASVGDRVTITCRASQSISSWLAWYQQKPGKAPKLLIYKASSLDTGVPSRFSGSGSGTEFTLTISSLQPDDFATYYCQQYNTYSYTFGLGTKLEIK ) = 1.4
